// data source = ChEMBL document CHEMBL5728937

Attribute Measured: IC50

Reading of IC50 for CCS(=O)(=O)c1ccc(CC(=O)Nc2cc(C)c3c(n2)CCC(C)(c2ccc(OC)nn2)C3=O)cc1 (single isomer, unassigned) with UniProt P51449: > 0.3 µM
